Molecular target: Oxytocin receptor (Homo sapiens) (UniProt P30559)
Sequence (whole entry): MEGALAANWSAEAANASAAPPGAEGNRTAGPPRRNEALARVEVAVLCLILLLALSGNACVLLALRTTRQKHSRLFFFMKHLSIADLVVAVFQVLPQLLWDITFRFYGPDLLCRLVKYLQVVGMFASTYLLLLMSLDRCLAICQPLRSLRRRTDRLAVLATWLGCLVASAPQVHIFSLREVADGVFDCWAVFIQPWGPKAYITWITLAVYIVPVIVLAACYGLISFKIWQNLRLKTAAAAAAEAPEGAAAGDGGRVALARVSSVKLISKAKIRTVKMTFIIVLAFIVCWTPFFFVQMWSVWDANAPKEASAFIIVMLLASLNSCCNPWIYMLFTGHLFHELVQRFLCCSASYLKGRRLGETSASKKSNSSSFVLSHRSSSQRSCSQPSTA
Test: Activity at OT receptor assessed as oxytocic activity in absence of magnesium
Type: functional
Settings: filed as agonist
Positions of bridges follow the written chain, without caps; N, C: chain ends. Non-standard residues stand in square brackets, D forms with d. Residues, ends and D or L forms follow the SMILES beside them. Orn = NCCC[C@H](N)C(=O)O; Dab = NCC[C@H](N)C(=O)O; Mpa = O=C(O)CCS
readout: Activity

- compound: "NCCC[C@@H]1NC(=O)[C@H](Cc2ccccc2)NC(=O)[C@H](Cc2ccc(O)cc2)NC(=O)CCSSC[C@@H](C(=O)N2CCC[C@H]2C(=O)N[C@@H](CCCN)C(=O)NCC(N)=O)NC(=O)[C@H](CC(N)=O)NC1=O ([Mpa]YF[Orn]NCP[Orn]G-NH2; disulfide 1-6)"
  Activity: "2.8 U/mg"
- compound: "NCCCC[C@H](NC(=O)[C@@H]1CCCN1C(=O)[C@@H]1CSSCCC(=O)N[C@@H](Cc2ccc(O)cc2)C(=O)N[C@@H](Cc2ccccc2)C(=O)N[C@@H](CCC(N)=O)C(=O)N[C@@H](CC(N)=O)C(=O)N1)C(=O)NCC(N)=O"
  Activity: "12 U/mg"
- compound: "N=C(N)NCCC[C@@H]1NC(=O)[C@H](Cc2ccccc2)NC(=O)[C@H](Cc2ccc(O)cc2)NC(=O)CCSSC[C@@H](C(=O)N2CCC[C@H]2C(=O)N[C@@H](CCN)C(=O)NCC(N)=O)NC(=O)[C@H](CC(N)=O)NC1=O ([Mpa]YFRNCP[Dab]G-NH2; disulfide 1-6)"
  Activity: "0.14 U/mg"
- compound: "NCCC[C@H](NC(=O)[C@@H]1CCCN1C(=O)[C@@H]1CSSCCC(=O)N[C@@H](Cc2ccc(O)cc2)C(=O)N[C@@H](Cc2ccccc2)C(=O)N[C@@H](CCC(N)=O)C(=O)N[C@@H](CC(N)=O)C(=O)N1)C(=O)NCC(N)=O"
  Activity: "15 U/mg"
- compound: "CC(C)C[C@@H]1NC(=O)[C@H](Cc2ccccc2)NC(=O)[C@H](Cc2ccc(O)cc2)NC(=O)CCSSC[C@@H](C(=O)N2CCC[C@H]2C(=O)N[C@@H](CCCNC(=N)N)C(=O)NCC(N)=O)NC(=O)[C@H](CC(N)=O)NC1=O ([Mpa]YFLNCPRG-NH2; disulfide 1-6)"
  Activity: "0.67 U/mg"
- compound: "CC(C)C[C@@H]1NC(=O)[C@H](Cc2ccccc2)NC(=O)[C@H](Cc2ccc(O)cc2)NC(=O)CCSSC[C@@H](C(=O)N2CCC[C@H]2C(=O)N[C@@H](CCCCN)C(=O)NCC(N)=O)NC(=O)[C@H](CC(N)=O)NC1=O ([Mpa]YFLNCPKG-NH2; disulfide 1-6)"
  Activity: "0.054 U/mg"

State the recorded Activity for this entry: NCC[C@H](NC(=O)[C@@H]1CCCN1C(=O)[C@@H]1CSSCCC(=O)N[C@@H](Cc2ccc(O)cc2)C(=O)N[C@@H](Cc2ccccc2)C(=O)N[C@@H](CCC(N)=O)C(=O)N[C@@H](CC(N)=O)C(=O)N1)C(=O)NCC(N)=O ([Mpa]YFQNCP[Dab]G-NH2; disulfide 1-6) 25 U/mg

Same thing, different compound: N=C(N)NCCC[C@@H]1NC(=O)[C@H](Cc2ccccc2)NC(=O)[C@H](Cc2ccc(O)cc2)NC(=O)CCSSC[C@@H](C(=O)N2CCC[C@H]2C(=O)N[C@@H](CCCCN)C(=O)NCC(N)=O)NC(=O)[C@H](CC(N)=O)NC1=O ([Mpa]YFRNCPKG-NH2; disulfide 1-6) 0.15 U/mg

----------
biological target: UniProt:Q00788; experiment: Displacement of [3H]AVP from vasopressin V2 receptor in rat kidney membranes; assay type: cell membranes, Membrane
Sequence (Q00788 whole entry): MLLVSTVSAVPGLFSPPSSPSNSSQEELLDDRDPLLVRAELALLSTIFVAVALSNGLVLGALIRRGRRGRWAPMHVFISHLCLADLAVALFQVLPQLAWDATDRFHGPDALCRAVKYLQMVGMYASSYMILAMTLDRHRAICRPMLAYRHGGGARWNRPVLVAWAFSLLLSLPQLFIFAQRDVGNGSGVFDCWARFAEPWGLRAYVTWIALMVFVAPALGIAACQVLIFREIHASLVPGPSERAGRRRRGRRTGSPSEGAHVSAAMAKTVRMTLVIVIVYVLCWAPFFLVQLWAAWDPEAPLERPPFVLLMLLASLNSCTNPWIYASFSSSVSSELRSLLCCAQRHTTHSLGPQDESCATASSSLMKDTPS
Positions of bridges follow the written chain, without caps; N, C: chain ends. Non-standard residues stand in square brackets, D forms with d. Residues, ends and D or L forms follow the SMILES beside them. Cha = N[C@@H](CC1CCCCC1)C(=O)O; Orn = NCCC[C@H](N)C(=O)O; Dab = NCC[C@H](N)C(=O)O; Dap = NC[C@H](N)C(=O)O; Mpa = O=C(O)CCS
readout: Ki

- molecule: "N=C(N)NCCC[C@@H]1NC(=O)[C@H](Cc2ccccc2)NC(=O)[C@H](Cc2ccc(O)cc2)NC(=O)CCSSC[C@@H](C(=O)N2CCC[C@H]2C(=O)N[C@@H](CCCN)C(=O)NCC(N)=O)NC(=O)[C@H](CC(N)=O)NC1=O ([Mpa]YFRNCP[Orn]G-NH2; disulfide 1-6)"
  result: "3.1 nM (antagonist)"
- molecule: "N=C(N)NCCC[C@@H]1NC(=O)[C@H](Cc2ccccc2)NC(=O)[C@H](Cc2ccc(O)cc2)NC(=O)CCSSC[C@@H](C(=O)N2CCC[C@H]2C(=O)N[C@@H](CCN)C(=O)NCC(N)=O)NC(=O)[C@H](CC(N)=O)NC1=O ([Mpa]YFRNCP[Dab]G-NH2; disulfide 1-6)"
  result: "1.8 nM (antagonist)"
- molecule: "NCCC[C@H](NC(=O)[C@@H]1CCCN1C(=O)[C@@H]1CSSCCC(=O)N[C@@H](Cc2ccc(O)cc2)C(=O)N[C@@H](Cc2ccccc2)C(=O)N[C@@H](CC2CCCCC2)C(=O)N[C@@H](CC(N)=O)C(=O)N1)C(=O)NCC(N)=O ([Mpa]YF[Cha]NCP[Orn]G-NH2; disulfide 1-6)"
  result: "450 nM (antagonist)"

State the recorded Ki for this entry: NC[C@H](NC(=O)[C@@H]1CCCN1C(=O)[C@@H]1CSSCCC(=O)N[C@@H](Cc2ccc(O)cc2)C(=O)N[C@@H](Cc2ccccc2)C(=O)N[C@@H](CC2CCCCC2)C(=O)N[C@@H](CC(N)=O)C(=O)N1)C(=O)NCC(N)=O ([Mpa]YF[Cha]NCP[Dap]G-NH2; disulfide 1-6) 1050 nM (antagonist)

Same thing, different molecule: NCCCC[C@H](NC(=O)[C@@H]1CCCN1C(=O)[C@@H]1CSSCCC(=O)N[C@@H](Cc2ccc(O)cc2)C(=O)N[C@@H](Cc2ccccc2)C(=O)N[C@@H](CC2CCCCC2)C(=O)N[C@@H](CC(N)=O)C(=O)N1)C(=O)NCC(N)=O ([Mpa]YF[Cha]NCPKG-NH2; disulfide 1-6) 600 nM (antagonist)

Same thing, different molecule: CC(C)C[C@@H]1NC(=O)[C@H](Cc2ccccc2)NC(=O)[C@H](Cc2ccc(O)cc2)NC(=O)CCSSC[C@@H](C(=O)N2CCC[C@H]2C(=O)N[C@@H](CCN)C(=O)NCC(N)=O)NC(=O)[C@H](CC(N)=O)NC1=O ([Mpa]YFLNCP[Dab]G-NH2; disulfide 1-6) 210 nM (antagonist)

----------
target: Oxytocin receptor (Rattus norvegicus, UniProt P70536); assay: Displacement of [3H]AVP from rat OT receptor expressed in CHO cells; format: cell-based
Sequence (P70536 whole entry): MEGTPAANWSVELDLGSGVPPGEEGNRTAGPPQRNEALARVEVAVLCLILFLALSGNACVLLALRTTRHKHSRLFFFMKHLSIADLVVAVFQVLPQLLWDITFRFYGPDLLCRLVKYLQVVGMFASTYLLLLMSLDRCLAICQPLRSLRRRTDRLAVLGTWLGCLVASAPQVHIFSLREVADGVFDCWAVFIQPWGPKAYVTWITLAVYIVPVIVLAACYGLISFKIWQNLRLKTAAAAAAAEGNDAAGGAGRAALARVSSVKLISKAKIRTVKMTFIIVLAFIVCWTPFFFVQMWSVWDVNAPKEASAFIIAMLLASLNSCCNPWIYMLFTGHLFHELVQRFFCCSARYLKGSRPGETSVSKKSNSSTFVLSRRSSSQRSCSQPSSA
Positions of bridges follow the written chain, without caps; N, C: chain ends. Non-standard residues stand in square brackets, D forms with d. Residues, ends and D or L forms follow the SMILES beside them. Cha = N[C@@H](CC1CCCCC1)C(=O)O; Orn = NCCC[C@H](N)C(=O)O; Dab = NCC[C@H](N)C(=O)O; Dap = NC[C@H](N)C(=O)O; Mpa = O=C(O)CCS
readout: Ki

Worked examples follow.
- compound: "CC(C)C[C@@H]1NC(=O)[C@H](Cc2ccccc2)NC(=O)[C@H](Cc2ccc(O)cc2)NC(=O)CCSSC[C@@H](C(=O)N2CCC[C@H]2C(=O)N[C@@H](CN)C(=O)NCC(N)=O)NC(=O)[C@H](CC(N)=O)NC1=O ([Mpa]YFLNCP[Dap]G-NH2; disulfide 1-6)"
  Ki: "134 nM (antagonist)"
- compound: "NCCCC[C@H](NC(=O)[C@@H]1CCCN1C(=O)[C@@H]1CSSCCC(=O)N[C@@H](Cc2ccc(O)cc2)C(=O)N[C@@H](Cc2ccccc2)C(=O)N[C@@H](CCCN)C(=O)N[C@@H](CC(N)=O)C(=O)N1)C(=O)NCC(N)=O ([Mpa]YF[Orn]NCPKG-NH2; disulfide 1-6)"
  Ki: "22 nM (antagonist)"

Notebook entry, Oxytocin receptor (Rattus norvegicus, UniProt P70536) assay: Ki of NC[C@H](NC(=O)[C@@H]1CCCN1C(=O)[C@@H]1CSSCCC(=O)N[C@@H](Cc2ccc(O)cc2)C(=O)N[C@@H](Cc2ccccc2)C(=O)N[C@@H](CC2CCCCC2)C(=O)N[C@@H](CC(N)=O)C(=O)N1)C(=O)NCC(N)=O ([Mpa]YF[Cha]NCP[Dap]G-NH2; disulfide 1-6) = ? 1200 nM (antagonist)

Same thing, different compound: NCCC[C@H](NC(=O)[C@@H]1CCCN1C(=O)[C@@H]1CSSCCC(=O)N[C@@H](Cc2ccc(O)cc2)C(=O)N[C@@H](Cc2ccccc2)C(=O)N[C@@H](CC2CCCCC2)C(=O)N[C@@H](CC(N)=O)C(=O)N1)C(=O)NCC(N)=O ([Mpa]YF[Cha]NCP[Orn]G-NH2; disulfide 1-6) 550 nM (antagonist)

Same thing, different compound: NCCCC[C@H](NC(=O)[C@@H]1CCCN1C(=O)[C@@H]1CSSCCC(=O)N[C@@H](Cc2ccc(O)cc2)C(=O)N[C@@H](Cc2ccccc2)C(=O)N[C@@H](CC2CCCCC2)C(=O)N[C@@H](CC(N)=O)C(=O)N1)C(=O)NCC(N)=O ([Mpa]YF[Cha]NCPKG-NH2; disulfide 1-6) 590 nM (antagonist)

Same thing, different compound: CC(C)C[C@@H]1NC(=O)[C@H](Cc2ccccc2)NC(=O)[C@H](Cc2ccc(O)cc2)NC(=O)CCSSC[C@@H](C(=O)N2CCC[C@H]2C(=O)N[C@@H](CCCCN)C(=O)NCC(N)=O)NC(=O)[C@H](CC(N)=O)NC1=O ([Mpa]YFLNCPKG-NH2; disulfide 1-6) 64 nM (antagonist)

Same thing, different compound: NCC[C@H](NC(=O)[C@@H]1CCCN1C(=O)[C@@H]1CSSCCC(=O)N[C@@H](Cc2ccc(O)cc2)C(=O)N[C@@H](Cc2ccccc2)C(=O)N[C@@H](CC2CCCCC2)C(=O)N[C@@H](CC(N)=O)C(=O)N1)C(=O)NCC(N)=O ([Mpa]YF[Cha]NCP[Dab]G-NH2; disulfide 1-6) 430 nM (antagonist)

Same thing, different compound: NCCC[C@@H]1NC(=O)[C@H](Cc2ccccc2)NC(=O)[C@H](Cc2ccc(O)cc2)NC(=O)CCSSC[C@@H](C(=O)N2CCC[C@H]2C(=O)N[C@@H](CCCN)C(=O)NCC(N)=O)NC(=O)[C@H](CC(N)=O)NC1=O ([Mpa]YF[Orn]NCP[Orn]G-NH2; disulfide 1-6) 37 nM (antagonist)

Same thing, different compound: NC(=O)CC[C@@H]1NC(=O)[C@H](Cc2ccccc2)NC(=O)[C@H](Cc2ccc(O)cc2)NC(=O)[C@@H](N)CSSC[C@@H](C(=O)N2CCC[C@H]2C(=O)N[C@@H](CCCN=C(N)N)C(=O)NCC(N)=O)NC(=O)[C@H](CC(N)=O)NC1=O [VASOPRESSIN] 1.17 nM (antagonist)

Same thing, different compound: CC(C)C[C@@H]1NC(=O)[C@H](Cc2ccccc2)NC(=O)[C@H](Cc2ccc(O)cc2)NC(=O)CCSSC[C@@H](C(=O)N2CCC[C@H]2C(=O)N[C@@H](CCN)C(=O)NCC(N)=O)NC(=O)[C@H](CC(N)=O)NC1=O ([Mpa]YFLNCP[Dab]G-NH2; disulfide 1-6) 41 nM (antagonist)

Same thing, different compound: N=C(N)NCCC[C@@H]1NC(=O)[C@H](Cc2ccccc2)NC(=O)[C@H](Cc2ccc(O)cc2)NC(=O)CCSSC[C@@H](C(=O)N2CCC[C@H]2C(=O)N[C@@H](CCCCN)C(=O)NCC(N)=O)NC(=O)[C@H](CC(N)=O)NC1=O ([Mpa]YFRNCPKG-NH2; disulfide 1-6) 125 nM (antagonist)

Same thing, different compound: N=C(N)NCCC[C@@H]1NC(=O)[C@H](Cc2ccccc2)NC(=O)[C@H](Cc2ccc(O)cc2)NC(=O)CCSSC[C@@H](C(=O)N2CCC[C@H]2C(=O)N[C@@H](CCN)C(=O)NCC(N)=O)NC(=O)[C@H](CC(N)=O)NC1=O ([Mpa]YFRNCP[Dab]G-NH2; disulfide 1-6) 195 nM (antagonist)

Same thing, different compound: N=C(N)NCCC[C@@H]1NC(=O)[C@H](Cc2ccccc2)NC(=O)[C@H](Cc2ccc(O)cc2)NC(=O)CCSSC[C@@H](C(=O)N2CCC[C@H]2C(=O)N[C@@H](CCCN)C(=O)NCC(N)=O)NC(=O)[C@H](CC(N)=O)NC1=O ([Mpa]YFRNCP[Orn]G-NH2; disulfide 1-6) 130 nM (antagonist)
